measurement-target: T1, Human CD137 ECD (human)
T1 construct: also called 4-1BB
T1 sequence (chain, as listed by the source limits assumed): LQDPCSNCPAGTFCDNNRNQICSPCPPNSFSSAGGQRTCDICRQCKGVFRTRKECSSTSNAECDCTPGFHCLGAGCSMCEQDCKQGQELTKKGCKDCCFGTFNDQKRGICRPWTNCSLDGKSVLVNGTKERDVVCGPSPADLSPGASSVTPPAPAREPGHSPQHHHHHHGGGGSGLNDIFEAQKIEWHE
procedure-details: single mutant vs template dBBDu183H
Values of fold change of affinity strictly less than 0.5 fold map to Condition met, and values of at least 0.5 fold map to Condition not met.

- binder: "H183/L072 VH L100dA (antibody, name in Kabat numbering, V domains shown) VH: QVQLVESGGGLVQPGRSLRLSCAASGFTFSNAWMHWVRQAPGKGLEWVAQIKDKGNAYAAYYAPSVKGRFTISRDDSKNSIYLQMNSLKTEDTAVYYCHYVHYASASTVAPAFGVDAWGQGTTVTVSS VL: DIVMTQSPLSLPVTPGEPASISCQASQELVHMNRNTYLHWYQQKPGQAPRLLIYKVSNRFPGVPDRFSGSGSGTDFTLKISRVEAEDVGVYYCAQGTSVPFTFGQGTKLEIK"
  category-label: "Condition not met"
- binder: "H183/L072 VH M34V (antibody, name in Kabat numbering, V domains shown) VH: QVQLVESGGGLVQPGRSLRLSCAASGFTFSNAWVHWVRQAPGKGLEWVAQIKDKGNAYAAYYAPSVKGRFTISRDDSKNSIYLQMNSLKTEDTAVYYCHYVHYASASTVLPAFGVDAWGQGTTVTVSS VL: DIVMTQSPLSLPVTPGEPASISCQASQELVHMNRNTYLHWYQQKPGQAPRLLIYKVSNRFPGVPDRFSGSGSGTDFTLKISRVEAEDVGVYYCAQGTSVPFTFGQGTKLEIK"
  category-label: "Condition not met"
- binder: "H183/L072 VH S30H (antibody, name in Kabat numbering, V domains shown) VH: QVQLVESGGGLVQPGRSLRLSCAASGFTFHNAWMHWVRQAPGKGLEWVAQIKDKGNAYAAYYAPSVKGRFTISRDDSKNSIYLQMNSLKTEDTAVYYCHYVHYASASTVLPAFGVDAWGQGTTVTVSS VL: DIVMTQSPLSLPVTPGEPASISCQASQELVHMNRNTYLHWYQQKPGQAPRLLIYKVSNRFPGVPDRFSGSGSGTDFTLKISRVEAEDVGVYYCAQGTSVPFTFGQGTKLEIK"
  category-label: "Condition not met"
- binder: "H183/L072 VH N31H (antibody, name in Kabat numbering, V domains shown) VH: QVQLVESGGGLVQPGRSLRLSCAASGFTFSHAWMHWVRQAPGKGLEWVAQIKDKGNAYAAYYAPSVKGRFTISRDDSKNSIYLQMNSLKTEDTAVYYCHYVHYASASTVLPAFGVDAWGQGTTVTVSS VL: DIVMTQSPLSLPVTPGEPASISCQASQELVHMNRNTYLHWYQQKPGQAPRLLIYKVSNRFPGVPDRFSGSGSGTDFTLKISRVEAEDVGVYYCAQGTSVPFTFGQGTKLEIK"
  category-label: "Condition met"
